Source of measurements: patent US20250136570A1

List of pIC50 values.
TARGET_SYSTEM: HDAC3/NCor2 (Homo sapiens (Human), UniProt O15379)
Sequence (O15379 whole entry): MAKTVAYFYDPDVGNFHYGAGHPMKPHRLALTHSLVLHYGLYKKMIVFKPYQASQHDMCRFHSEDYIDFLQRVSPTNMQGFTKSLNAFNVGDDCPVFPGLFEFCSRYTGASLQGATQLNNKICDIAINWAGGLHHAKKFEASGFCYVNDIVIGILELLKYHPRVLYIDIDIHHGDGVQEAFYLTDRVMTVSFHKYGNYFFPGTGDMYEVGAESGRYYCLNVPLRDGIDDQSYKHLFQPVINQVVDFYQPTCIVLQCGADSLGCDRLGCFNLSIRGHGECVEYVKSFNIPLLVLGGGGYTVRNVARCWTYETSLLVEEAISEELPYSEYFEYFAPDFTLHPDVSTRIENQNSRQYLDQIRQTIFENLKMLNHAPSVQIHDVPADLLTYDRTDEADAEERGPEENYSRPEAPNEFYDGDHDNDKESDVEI
Sequence (Q9Y618 395-489 partner): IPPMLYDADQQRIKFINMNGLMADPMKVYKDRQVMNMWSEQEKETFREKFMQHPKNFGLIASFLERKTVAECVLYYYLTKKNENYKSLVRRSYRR
RUN_DESCRIPTION: HDAC3 inhibition, Fluor de Lys fluorescent enzyme assay
CONDITION_SUMMARY: 3 hours pre-incubation at room temp; 1.2 nM enzyme; 16 μM Fluor de Lys substrate; duplicate
pIC50: −log10 of the molar value.

# COMPOUND, pIC50
measured = [
    ("N=S(=O)(c1ccc(C(=O)Nc2cc(-c3ccc(F)cc3)ccc2N)cc1)c1ccc(CO)nc1 (centres unmarked)", "5.70 to 6.30"),
    ("COCCOCc1ccc(S(=N)(=O)c2ccc(C(=O)Nc3cc(-c4ccc(F)cc4)ccc3N)cc2)cn1 (centres unmarked)", "5.70 to 6.30"),
    ("Cc1cnc(S(=N)(=O)c2ccc(C(=O)Nc3cc(-c4ccc(F)cc4)ccc3N)cc2)[nH]1 (centres unmarked)", "6.30 to 7.00"),
    ("C[S@@](=N)(=O)c1ccc(C(=O)Nc2cc(-c3ccc(F)s3)ccc2N)cc1", "5.70 to 6.30"),
    ("Nc1ccc(-c2ccc(F)cc2)cc1NC(=O)c1cc2cc(S3(=O)=NCCC3)ccc2o1 (centres unmarked)", "5.70 to 6.30"),
    ("N=S(=O)(c1ccc(C(=O)Nc2cc(-c3ccc(F)cc3)ccc2N)cc1)c1cncc(Cl)c1 (centres unmarked)", "5.70 to 6.30"),
    ("N=S(=O)(c1ccc(C(=O)Nc2cc(-c3ccc(F)cc3)ccc2N)cc1)c1ccc(C(F)(F)F)nc1 (centres unmarked)", "< 5.70"),
]

Here's the next entry for you.
// query Fill in the blank: the reported pIC50 of CS(=N)(=O)c1ccc(C(=O)Nc2cc(-c3cccs3)ccc2N)nn1 (centres unmarked) is ____.
// result 6.30 to 7.00
